Biological target: RARβ (Homo sapiens, UniProt P10826)
Construct: gal4 (fusion partner); expressed in transfected cells; host or cells: COS-7
Assay: Transactivation assay for RAR beta (gal4-RAR fusion, luciferase reporter, COS-7 cells)
Format: cell-based
Conditions: ratio of test compound EC50 to that of atRA; inactive = no agonist action at the highest concentration tested
Measurement Kind: RARβ activity ratio

Example cases with answers are listed next.
CCOc1c(Cl)cc(C(=O)Nc2ccc(C(=O)O)nn2)cc1OC(C)C [AAA-082]    6885
CCC(CC)Oc1cc(C(=O)Nc2ccc(C(=O)O)cc2)cc(Cl)c1OC [AAA-101]    39
CCOc1c(Br)cc(C(=O)Nc2ccc(C(=O)O)cc2)cc1Br [AAA-023]    404
COCCOc1cc(C(=O)Nc2ccc(C(=O)O)c(F)c2)cc(Cl)c1OC [AAA-104]    10164
COc1c(Cl)cc(C(=O)Nc2ccc(C(=O)O)c(F)c2)cc1C(F)(F)F [AAA-066]    7558

(I) CCOc1c(Br)cc(NC(=O)c2ccc(C(=O)O)cc2)cc1Br [AAA-014]
(II) CCOc1cc(C(=O)Nc2ccc(C(=O)O)cc2)cc(OCC)c1Br [AAA-106]
(III) CCOc1c(OC2CCCC2)cc(C(=O)Nc2ccc(C(=O)O)cc2)cc1OC1CCCC1 [AAA-058]
(IV) CC(C)Oc1cc(C(=O)Nc2ccc(C(=O)O)c(F)c2)cc(Cl)c1OC(C)C [AAA-095]
(V) CC(C)Oc1cc(C(=O)Nc2ccc(C(=O)O)c(O)c2)cc(Cl)c1OC(C)C [AAA-091]
Query: Could you please order the items by RARβ activity ratio, going from the lowest number to the highest? Answer by naming the labels in the order asked.
Reply: IV, V, I, II, III

(a) CCOc1c(Cl)cc(C(=O)Nc2ccc(C(=O)O)c(O)c2)cc1OCC1CC1 [AAA-090]
(b) COc1c(Cl)cc(C(=O)Nc2ccc(C(=O)O)c(C)c2)cc1C(F)(F)F [AAA-041]
Query: Short answer wanted: higher RARβ activity ratio, a or b ? Your answer should be the label attached to the chosen record.
Reply: a

(a) CCOc1cc(C(=O)Nc2ccc(C(=O)O)cc2)cc(OC(C)C)c1OCC [AAA-009]
(b) CCOc1c(Cl)cc(C(=O)Nc2ccc(C(=O)O)c(O)c2)cc1Cl [AAA-057]
Query: Short answer wanted: higher RARβ activity ratio, a or b ? Your answer should be the label attached to the chosen record.
Reply: a

----------
Target: RARβ (Homo sapiens)
Construct: gal4 (fusion partner); expressed in transfected cells; host or cells: COS-7
Sequence (P10826 183-417 limits assumed): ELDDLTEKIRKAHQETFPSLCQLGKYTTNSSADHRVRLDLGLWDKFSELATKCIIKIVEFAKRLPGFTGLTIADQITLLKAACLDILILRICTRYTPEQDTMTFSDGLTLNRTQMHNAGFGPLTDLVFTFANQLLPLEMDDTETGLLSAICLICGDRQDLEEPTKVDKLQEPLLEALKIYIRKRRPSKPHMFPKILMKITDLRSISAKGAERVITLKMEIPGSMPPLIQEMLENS
Assay: Transactivation assay for RAR beta (gal4-RAR fusion, luciferase reporter, COS-7 cells)
Type: cell-based
Conditions: ratio of test compound EC50 to that of atRA; inactive = no agonist action at the highest concentration tested
Measurement Kind: RARβ activity ratio

Example cases with answers are listed next.
CCOc1c(Cl)cc(C(=O)Nc2ccc(C(=O)O)c(F)c2)cc1OC(C)C    536
O=C(O)c1ccc(NC(=O)c2cc(Cl)c(OC3CCCC3)c(C(F)(F)F)c2)cc1    53
COc1c(Cl)cc(C(=O)Nc2ccc(C(=O)O)cc2F)cc1C(F)(F)F    279
CCOc1c(Cl)cc(C(=O)Nc2ccc(C(=O)O)cc2)cc1Cl    1920
Cc1cc(NC(=O)c2cc(Br)c(OC(C)C)c(Br)c2)ccc1C(=O)O    21
Cc1cc(NC(=O)c2cc(Cl)c(OC3CCC3)c(OC3CCC3)c2)ccc1C(=O)O    92
CCOc1c(C(F)(F)F)cc(NC(=O)c2ccc(C(=O)O)cc2)cc1C(F)(F)F    540
CCOc1c(Cl)cc(C(=O)Nc2ccc(C(=O)O)cc2)cc1C(F)(F)F    131
CCCOc1c(Cl)cc(C(=O)Nc2ccc(C(=O)O)cc2)cc1Cl    139
CC(C)Oc1c(Cl)cc(C(=O)Nc2ccc(C(=O)O)cc2)cc1Cl    1420

(1) CCOc1c(OC(C)C)cc(C(=O)Nc2ccc(C(=O)O)c(C)c2)cc1OC(C)C
(2) COc1cc(C(=O)Nc2ccc(C(=O)O)cc2)cc(OC(C)C)c1Cl
Query: Short answer wanted: higher RARβ activity ratio, 1 or 2 ? Your answer should be the label attached to the chosen record.
Reply: 1

// provenance: patent US9447028B2
